growth values for the compounds below.
- System: OVCAR-5 ovarian
- experimentNotes: NCI-60 one-dose screen, 48 h (100 = growth as untreated, 0 = no growth, -100 = all killed)
- measurementSetup: 10 µM unless noted
The panel holds about 83,000 compounds, 20% with a hit somewhere; the sample as a whole holds those more often.
Provide the reading as a plain figure in %.

Examples with answers:
{"compound": "COc1ccc(CCN2CCC(CN(C)Cc3cnn(-c4ccccc4)c3)CC2)cc1", "growth [%]": 57.4}
{"compound": "CCOc1cccc(/C=N\\Nc2nc(=O)cc(C(=O)OC)s2)c1O", "growth [%]": 92.9}
{"compound": "O=C(CSc1nc2ccccc2c(=O)n1-c1ccccc1)Nc1ccc(C(=O)/C=C/c2ccc(Cl)cc2)cc1", "growth [%]": 98.4}
{"compound": "CCN1CCN(C(=S)SCC(=O)Nc2nc3ccc(C)cc3s2)CC1", "growth [%]": 95.3}
{"compound": "O=C1/C(=C/c2ccc(O)cc2)COc2ccc(O)cc21", "growth [%]": 104}
{"compound": "OCCNc1nc(Nc2ccc(C3=NN(c4cc(Cl)cc(Cl)c4)C(c4ccc(C(F)(F)F)cc4)C3)cc2)nc(N2CCOCC2)n1 (stereo unspecified)", "growth [%]": 95.3}

For this compound ( COc1cc(/C=C2\CN(C)C/C(=C\c3cc(CN4CCOCC4)c(O)c(OC)c3)C2=O)cc(CN2CCOCC2)c1O ), measured growth is 88.7

The compound listed as O=NN(Cc1cccnc1)C(=O)NC1CCCCC1 has a reported growth of 97.4

// growth value for O=C(NCc1ccco1)C1CN(c2ccc(Cl)cc2)N(c2ccc(Cl)cc2)C1=O (stereo unspecified) : 82.2
